- SUBJECT OF TEST: mTOR (Homo sapiens, UniProt P42345)
- Sequence (P42345 1360-2549 limits assumed): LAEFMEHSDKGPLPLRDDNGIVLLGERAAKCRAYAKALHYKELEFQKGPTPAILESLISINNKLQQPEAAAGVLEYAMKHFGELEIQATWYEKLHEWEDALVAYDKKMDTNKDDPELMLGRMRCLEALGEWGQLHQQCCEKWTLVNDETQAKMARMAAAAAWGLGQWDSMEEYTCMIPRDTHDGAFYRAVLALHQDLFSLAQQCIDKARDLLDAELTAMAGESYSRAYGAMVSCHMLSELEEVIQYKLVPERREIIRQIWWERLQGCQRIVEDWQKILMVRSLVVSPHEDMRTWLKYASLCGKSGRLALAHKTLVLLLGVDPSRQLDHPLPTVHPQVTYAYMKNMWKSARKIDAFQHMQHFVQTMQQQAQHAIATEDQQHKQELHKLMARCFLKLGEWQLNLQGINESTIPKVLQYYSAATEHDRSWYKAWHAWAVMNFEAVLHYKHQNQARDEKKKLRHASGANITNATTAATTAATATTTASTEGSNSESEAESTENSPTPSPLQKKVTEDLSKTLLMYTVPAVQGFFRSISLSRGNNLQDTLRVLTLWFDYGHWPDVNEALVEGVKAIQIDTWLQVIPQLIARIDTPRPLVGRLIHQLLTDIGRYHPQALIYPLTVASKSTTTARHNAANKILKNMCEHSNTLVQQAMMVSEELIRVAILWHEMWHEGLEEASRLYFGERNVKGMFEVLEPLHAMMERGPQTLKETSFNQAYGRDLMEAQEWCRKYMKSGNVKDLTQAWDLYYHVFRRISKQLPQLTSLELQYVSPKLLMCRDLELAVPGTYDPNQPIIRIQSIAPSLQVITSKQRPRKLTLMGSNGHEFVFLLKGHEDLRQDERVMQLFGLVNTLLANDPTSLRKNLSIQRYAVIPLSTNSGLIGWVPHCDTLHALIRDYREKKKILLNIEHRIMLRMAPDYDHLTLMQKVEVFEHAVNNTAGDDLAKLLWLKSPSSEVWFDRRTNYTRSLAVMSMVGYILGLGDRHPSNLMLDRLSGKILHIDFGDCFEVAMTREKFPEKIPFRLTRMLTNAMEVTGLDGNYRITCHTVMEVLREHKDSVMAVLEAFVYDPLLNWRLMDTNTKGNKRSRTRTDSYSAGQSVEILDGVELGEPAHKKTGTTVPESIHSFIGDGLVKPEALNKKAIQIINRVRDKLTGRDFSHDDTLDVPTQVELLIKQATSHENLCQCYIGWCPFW
- ASSAY COMMENT: mTOR enzyme assay (DELFIA, purified FLAG-TOR, His6-S6K substrate)
- Type: biochemical
- Design: FLAG
- CONDITION NOTES: 100 μM ATP, 2 hours
Documented IC50 across a set of compounds
The reply should be a number in nM, with the unit left off.

Here are 5 compounds together with their reported answers.
>  <GIVEN SMILES>
CC(C)Oc1cc(N2CC3CCC(C2)O3)nc(-c2ccc(NC(=O)NC3CC3)cc2)n1

>  <UNITS TEXT>
nM

>  <IC50>
4.45

$$$$
>  <GIVEN SMILES>
CN(C)Cc1ccc(NC(=O)Nc2ccc(-c3nc(N4C5CCC4COC5)cc(N4C[C@@H]5C[C@H]4CO5)n3)cc2)cc1

>  <UNITS TEXT>
nM

>  <IC50>
16

$$$$
>  <GIVEN SMILES>
C[C@@H]1COCCN1c1cc(N2C3CCC2COC3)nc(-c2ccc(NC(=O)Nc3ccc(C(=O)N4CCN(C)CC4)cc3)cc2)n1

>  <UNITS TEXT>
nM

>  <IC50>
0.75

$$$$
>  <GIVEN SMILES>
CCN(C(=O)Nc1ccc(N2CCN(C)CC2)cc1)c1ccc(-c2nc(N3CC4CCC(C3)O4)cc(N3CC4CCC(C3)O4)n2)cc1

>  <UNITS TEXT>
nM

>  <IC50>
195

$$$$
>  <GIVEN SMILES>
CC(C)Nc1nc(-c2ccc(NC(=O)Nc3cccnc3)cc2)nc(N2CC3CCC(C2)O3)c1NC(=O)CCN(C)C

>  <UNITS TEXT>
nM

>  <IC50>
13500

$$$$

Continue with the compound presented below.
So what does the record say about IC50 for `CC(C)Nc1cc(N2C3CCC2COC3)nc(-c2ccc(NC(=O)Nc3ccncc3)cc2)n1` ?
1.4

// data source = patent US8835429B2
